target: Androgen Receptor (Homo sapiens, UniProt P10275+P40337, T878A); construct: Compounds have been evaluated in this assay in LNCaP and/or VCaP cells utilizing similar protocols; endogenous in cells; host or cells: LNCaP cells; assay: Androgen Receptor ELISA assay (PathScan AR ELISA) in LNCaP cells: AR degradation, Dmax and DC50; format: cell-based; conditions: concentration that caused 50% Androgen Receptor degradation
Sequence (P10275 whole entry T878A): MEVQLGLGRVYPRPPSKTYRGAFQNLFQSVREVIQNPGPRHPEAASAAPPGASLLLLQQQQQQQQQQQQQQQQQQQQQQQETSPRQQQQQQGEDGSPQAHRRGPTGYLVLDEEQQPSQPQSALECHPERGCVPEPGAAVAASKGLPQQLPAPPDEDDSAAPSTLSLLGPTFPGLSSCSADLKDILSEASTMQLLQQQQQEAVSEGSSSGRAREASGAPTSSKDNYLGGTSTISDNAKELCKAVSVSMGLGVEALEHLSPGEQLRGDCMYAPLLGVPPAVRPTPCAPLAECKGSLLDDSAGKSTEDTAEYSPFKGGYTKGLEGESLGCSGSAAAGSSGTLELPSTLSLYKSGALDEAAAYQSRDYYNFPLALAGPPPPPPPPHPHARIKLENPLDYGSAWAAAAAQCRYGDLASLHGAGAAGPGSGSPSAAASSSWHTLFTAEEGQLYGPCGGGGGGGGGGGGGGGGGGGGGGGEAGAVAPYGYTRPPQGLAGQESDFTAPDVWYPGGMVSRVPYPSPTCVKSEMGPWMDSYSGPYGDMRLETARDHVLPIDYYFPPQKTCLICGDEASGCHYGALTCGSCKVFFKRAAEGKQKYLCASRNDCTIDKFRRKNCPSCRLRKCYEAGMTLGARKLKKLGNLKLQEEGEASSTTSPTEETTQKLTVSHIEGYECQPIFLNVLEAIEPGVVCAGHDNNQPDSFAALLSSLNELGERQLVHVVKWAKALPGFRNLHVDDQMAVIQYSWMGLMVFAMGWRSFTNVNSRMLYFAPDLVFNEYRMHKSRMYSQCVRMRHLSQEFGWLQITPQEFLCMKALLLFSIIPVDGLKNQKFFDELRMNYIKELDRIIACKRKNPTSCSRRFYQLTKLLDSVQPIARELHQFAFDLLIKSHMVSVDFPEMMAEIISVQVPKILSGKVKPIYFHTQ
Sequence (P40337 whole entry): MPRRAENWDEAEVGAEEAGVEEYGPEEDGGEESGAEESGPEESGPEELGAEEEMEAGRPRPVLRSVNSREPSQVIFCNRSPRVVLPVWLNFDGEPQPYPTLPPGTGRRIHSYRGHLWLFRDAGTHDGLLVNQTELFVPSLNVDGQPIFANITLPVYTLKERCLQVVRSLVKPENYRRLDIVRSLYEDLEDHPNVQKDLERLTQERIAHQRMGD
Sequence (Q15369 whole entry partner): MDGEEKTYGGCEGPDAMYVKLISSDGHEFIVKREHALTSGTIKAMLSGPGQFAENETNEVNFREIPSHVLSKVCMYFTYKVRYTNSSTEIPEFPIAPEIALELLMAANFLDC
Sequence (Q15370 whole entry partner): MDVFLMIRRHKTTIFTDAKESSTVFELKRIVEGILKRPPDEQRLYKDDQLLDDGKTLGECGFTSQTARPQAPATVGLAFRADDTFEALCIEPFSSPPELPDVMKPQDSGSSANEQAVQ
Measured DC50 values are reported for all entries that follow.

Answered cases to consult:
| compound | DC50 |
| --- | --- |
| Cc1ncsc1-c1ccc(CNC(=O)[C@@H]2C[C@@H](O)CN2C(=O)[C@@H](NC(=O)COCCOCCCCCOc2ccc(N3C(=S)N(c4ccc(C#N)c(C(F)(F)F)c4)C(=O)C3(C)C)cc2)C(C)(C)C)cc1 [Example 247] | < 0.05 µM |
| Cc1ncsc1-c1ccc(CNC(=O)[C@@H]2C[C@H](O)CN2C(=O)[C@@H](NC(=O)COCCCOCCCCCOc2ccc(N3C(=S)N(c4ccc(C#N)c(C(F)(F)F)c4)C(=O)C3(C)C)cc2)C(C)(C)C)cc1 [Example 242] | > 0.501 µM |
| Cc1ncsc1-c1ccc(CNC(=O)[C@@H]2C[C@@H](O)CN2C(=O)[C@@H](NC(=O)COCCOCCOCCCCOCCOCCOc2ccc(N3C(=S)N(c4ccc(C#N)c(C(F)(F)F)c4)C(=O)C3(C)C)cc2)C(C)(C)C)cc1 [Example 217] | < 0.05 µM |

// moving on: another record for DC50
Form field: reported DC50 of Cc1ncsc1-c1ccc(CNC(=O)[C@@H]2C[C@@H](O)CN2C(=O)[C@@H](NC(=O)COCCOCCN(C)C(=O)CCCc2ccc(N3C(=S)N(c4ccc(C#N)c(C(F)(F)F)c4)C(=O)C3(C)C)cc2)C(C)(C)C)cc1 [Example 64]
0.051 to 0.5 µM

Source listed as patent US11427548B2.
